# target-of-assay: HIV-1 Env of pseudovirus isolate MGRM-G-024 (subtype G) (HIV-1)
# assay-text: cell-based or functional assay
# IC50 per record follows

binder | display-unit | rel | IC50
PGT-127 (antibody, V domains shown) VH: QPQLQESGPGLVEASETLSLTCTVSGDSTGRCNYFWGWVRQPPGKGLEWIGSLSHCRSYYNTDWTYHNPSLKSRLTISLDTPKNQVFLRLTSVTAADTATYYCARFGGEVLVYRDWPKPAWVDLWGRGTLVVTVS VL: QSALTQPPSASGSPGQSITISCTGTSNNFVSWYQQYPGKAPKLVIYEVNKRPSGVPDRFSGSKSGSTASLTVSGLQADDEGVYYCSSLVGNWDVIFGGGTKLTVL | µg/mL | > | 50
PGT-131 (antibody, V domains shown) VH: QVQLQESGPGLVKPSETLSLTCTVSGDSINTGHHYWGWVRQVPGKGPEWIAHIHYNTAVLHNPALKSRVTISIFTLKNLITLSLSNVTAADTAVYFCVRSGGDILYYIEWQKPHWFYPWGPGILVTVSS VL: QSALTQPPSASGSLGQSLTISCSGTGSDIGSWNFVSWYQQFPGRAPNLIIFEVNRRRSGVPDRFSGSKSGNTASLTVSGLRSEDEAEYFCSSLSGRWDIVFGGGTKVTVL | µg/mL | = | 10.7
PGT-123 (antibody, V domains shown) VH: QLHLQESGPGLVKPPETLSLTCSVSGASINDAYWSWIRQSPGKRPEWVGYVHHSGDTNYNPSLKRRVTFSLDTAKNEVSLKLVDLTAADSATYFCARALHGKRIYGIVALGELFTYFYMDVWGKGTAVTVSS VL: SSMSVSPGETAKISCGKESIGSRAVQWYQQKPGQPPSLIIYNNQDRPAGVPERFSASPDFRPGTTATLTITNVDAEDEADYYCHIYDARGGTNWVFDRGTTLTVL | µg/mL | = | 0.032
PGT-135 (antibody, V domains shown) VH: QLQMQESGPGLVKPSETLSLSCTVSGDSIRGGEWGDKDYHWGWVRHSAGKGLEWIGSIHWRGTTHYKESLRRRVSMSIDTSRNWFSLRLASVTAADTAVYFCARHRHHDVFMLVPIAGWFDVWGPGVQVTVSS VL: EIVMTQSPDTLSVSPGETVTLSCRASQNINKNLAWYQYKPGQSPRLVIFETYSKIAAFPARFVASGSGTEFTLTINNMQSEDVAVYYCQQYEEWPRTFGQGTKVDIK | µg/mL | = | 0.062
PGT-128 (antibody, V domains shown) VH: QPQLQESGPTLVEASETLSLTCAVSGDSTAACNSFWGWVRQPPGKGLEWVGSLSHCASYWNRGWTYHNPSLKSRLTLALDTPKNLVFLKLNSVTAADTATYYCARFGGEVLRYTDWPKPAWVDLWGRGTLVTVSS VL: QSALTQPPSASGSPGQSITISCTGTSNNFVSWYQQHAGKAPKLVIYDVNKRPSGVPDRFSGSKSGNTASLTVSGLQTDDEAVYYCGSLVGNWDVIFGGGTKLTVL | µg/mL | = | 0.095
